Kindly supply the reported inhibition values for the records listed here.
Method summary: NOD1 signaling inhibitors, primary screen, cell-based, luminescence, uHTS (AID 1578);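 note: HEK-293T reporter cells stimulated with the NOD1 agonist gamma-tri-DAP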
Condition notes: NOD1-driven NF-kB luciferase reporter cells, at 4 µM, stronger effect = higher value
Among all 290,000 compounds or so, about 3,000 (1%) were called active. For the sample, actives were picked, then their nearest neighbours and some compounds at random.
The figure you give is taken to be in %; do not add the unit.

Entry `CCOC(=O)c1c(C)[nH]c(C2=NNC(=Nc3ccc(OCC)cc3)SC2)c1C` has what inhibition?
-31.6

Any idea what inhibition was measured for `CCS(=O)(=O)c1ccc(N=Nc2ccc(O)c3ncccc23)c(OC)c1` ?
-30

Quick one: inhibition of `COc1cc2[nH]c(=O)n(C3CCCCC3)c(=O)c2cc1OC` ?
3.9

Data request, read-out inhibition, for `O=C(c1ccco1)N1CCN(Cc2nnc(-c3cccc(Br)c3)o2)CC1`
37.7

Param item = `FC(F)(F)c1cnc(NNC(=S)Nc2ccc(Cl)cc2)c(Cl)c1` ; retrieve measured inhibition.
104

What value of inhibition has been reported for the following molecule? `CCOc1ccc(OCc2ccc(C(=O)NC(C)C)o2)cc1`
-2.6

Quick check: inhibition of `CC(=O)c1ccc(NC(=O)c2cnn3ccccc23)cc1` ?
63.1

# lookup: inhibition of `O=c1cc(-c2c(F)c(F)c(F)c(F)c2F)oc2c(F)c(F)c(F)c(F)c12`
98.7

Form field: reported inhibition of `CC(=O)c1cccc(NC(=O)c2cnn3ccccc23)c1`
-1

Reported inhibition, molecule `CCc1ccc(NC(=O)c2cnn3ccccc23)cc1` : ____
50.8

Name the reported inhibition value associated with the molecule `CCCc1cc(-c2n[nH]c(=S)n2-c2cccc(C)c2)cs1`
-9.6

Query: inhibition; subject: `Cc1cccc(NC(=S)NNc2ncc(C(F)(F)F)cc2Cl)c1`
34.9

Returns the measured inhibition for the input molecule. Input: CC1CCC(C(C)C)C(OCC(O)CN2CCCC(C)C2)C1 (configuration not stated)
-44.4

Quick one: inhibition for Cn1cccc1C(NC(=O)c1ccccc1)C(Cl)(Cl)Cl (configuration not stated) ?
-0.5

// query inhibition value for entry `COc1ccc(NC(=O)c2ccc(S(=O)(=O)N(C)C)cc2)cc1`
-41.1

Which inhibition value belongs to `COc1c(OC)c(O)c2c(=O)cc(-c3c(O)cccc3O)oc2c1OC` ?
2.2

Suppose we examine the molecule CCCC(=O)NCC(c1cccs1)S(=O)(=O)c1ccc(Cl)cc1 (configuration not stated) ; what inhibition value has been reported?
-18

Requested read-out: inhibition. Entry: `CN1CC(=O)N(CC(=O)Nc2cc(Cl)cc(Cl)c2)C1=O`
-17.3

Bench note: what inhibition did `CCOc1ccc(N=Nc2ccc(O)c3ncccc23)cc1` show?
25.7

Item under review: `CC(C)(C)c1ccc(/C=C2\SC(=O)N(CCNC(=O)c3cccc(S(=O)(=O)N4CCOCC4)c3)C2=O)cc1` . Reported inhibition?
74.4

Which inhibition reading was recorded for the molecule O=C(NCC1CCCO1)c1ccc(S(=O)(=O)N2CCC(c3nc4ccc(Cl)cc4[nH]3)CC2)cc1 (configuration not stated) ?
-25.9

Consider the molecule `O=C(NCCN1C(=O)S/C(=C\c2ccc(Cl)cc2)C1=O)c1ccc(F)c(S(=O)(=O)N2CCOCC2)c1` and give its measured inhibition.
-0.6

These entries and their values trace back to PubChem BioAssay AID1578.
